Test System: Gal(b1-4)GlcNAc(b1-3)Gal(b1-4)Glc
Assay Remarks: glycan array binding signal (z-score within array); higher = stronger binding
Reported Conditions: glycan notation: IUPAC condensed, linker removed
Shown is part of a subset that was picked to be rich in the strongest signals.
Readout Type: glycan array binding signal (z-score)
Reply with the value as a number alone.

glycan array binding signal (z-score) reading for EPL1 (Trichoderma atroviride), A0PCX2 (protein) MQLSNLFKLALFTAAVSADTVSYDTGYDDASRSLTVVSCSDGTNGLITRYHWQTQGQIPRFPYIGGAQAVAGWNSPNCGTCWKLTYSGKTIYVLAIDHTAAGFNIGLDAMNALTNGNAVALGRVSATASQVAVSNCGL : -0.362

Value of glycan array binding signal (z-score) reported for the binder RVL (Remusatia vivipara), B5LYJ9 (protein) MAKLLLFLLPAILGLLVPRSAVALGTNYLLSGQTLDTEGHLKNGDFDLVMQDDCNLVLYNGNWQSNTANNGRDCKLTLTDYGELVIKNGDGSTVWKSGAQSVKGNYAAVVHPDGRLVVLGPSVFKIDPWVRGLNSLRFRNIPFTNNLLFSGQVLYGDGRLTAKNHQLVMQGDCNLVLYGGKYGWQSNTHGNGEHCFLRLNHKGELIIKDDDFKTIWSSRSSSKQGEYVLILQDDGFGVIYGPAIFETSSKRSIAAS is -0.252

Per the records, this binder ( STA (Solanum tuberosum), Q9S8M0 (protein) NASPPSPSPLPYPQCGMKKGGGKCIKTGECCSIWGWCGTTNAYCSPGYCQKQCPGPYPEGRCGWQANGKSCPTGTGQCCSNGGWCGTTSDYCASKNCQSQCKLPSPPPPPPPPSPPPPSPPSPPPPSPPPPPPPSPPPPSPPPPSPSPPPPPASPPPPPPALPYPQCGIKKGGGKCIKTGECCSIWGWCGTTNAYCSPGYCQKQCPGPYPEGRCGWQANGKSCPTGTGHCCSNAGWCGTTSDYCAPVNCQAQCNTTTLTSPIKNRMRGIESFMLNVV ) has glycan array binding signal (z-score) equal to 1.35
